# targetSystem: Cytochrome P450 3A4 (Homo sapiens)
# measurementDescription: Cytochrome panel assay with activity outcomes; also: % is scaled to controls: 0 for no effect and ±100 for the full control effect
# conditions: recombinant CYP, pro-luciferin dealkylation, luminescence, p450-cyp3a4; series mostly up to 57.1 µM
About 5,100 (32%) of roughly 16,000 compounds were called active. Inconclusive results (about 25%) are left out. Some of the results follow.
assayMetric: activity, negative = inhibition

Worked cases, answers included:
C=CCN1C(=O)NC(=O)/C(=C/c2cccn2C)C1=O    8.88% [at 2.29 µM] (inactive)
CC[C@]1(C2=NCCN2)Cc2ccccc2O1    inactive
CCn1c(O)c(C(c2ccccn2)c2c(O)n(CC)c(=S)[nH]c2=O)c(=O)[nH]c1=S    inactive
O=C(O)[C@@H]1[C@H](C(=O)O)[C@]2(Cl)C(Cl)=C(Cl)[C@@]1(Cl)C2(Cl)Cl    -9.54% [at 11.4 µM] (inactive)
c1cncc([C@@H]2CCCCN2)c1    inactive

For this compound ( CCN(CCCl)Cc1ccccc1Br ), measured activity, negative = inhibition is inactive

Looking up O=C(O)CCCC[C@H]1SC[C@H]2NC(=O)N[C@@H]21 , I see its activity, negative = inhibition listed as inactive

activity, negative = inhibition measured on CC(=O)OCC(=O)[C@@H]1CC[C@H]2[C@H]3CC[C@H]4C[C@@H](O)CC[C@]4(C)[C@@H]3C(=O)C[C@@]12C = inactive

activity, negative = inhibition reading for NN=C(N)N : inactive

Kindly note the recorded activity, negative = inhibition for O=P(Nc1ccccc1)(Nc1ccccc1)Oc1cccc(Cl)c1 , which is -28.2% [at 2.29 µM] (inactive)
